Origin of the recorded values: patent US7534871B2

tested on: CMV Davis strain; assay: Anti-CMV activity: plaque reduction in HEL cells, Davis strain; assay type: cell-based, human cytomegalovirus (CMV); conditions: Human betaherpesvirus 5, HEL; Table 6; reduce virus plaque formation by 50%; virus input 100 PFU; read-out: Anti-CMV activity IC50 Davis strain
Measurement type: IC50

• CO[C@@H]1[C@@H](OC)[C@H](Sc2ccccc2)O[C@@H]2CO[C@@H](c3ccccc3)O[C@@H]12 = > 5 µg/mL
• CCO[C@@H]1[C@@H](OCC)[C@H](Sc2ccccc2)O[C@@H]2CO[C@@H](c3ccccc3)O[C@@H]12 = > 50 µg/mL
• O[C@@H]1[C@@H](O)[C@H](Sc2ccccc2)O[C@@H]2CO[C@@H](c3ccccc3)O[C@@H]12 = 35 µg/mL
• c1ccc(CO[C@@H]2[C@@H](OCc3ccccc3)[C@H](Sc3ccccc3)O[C@@H]3CO[C@@H](c4ccccc4)O[C@@H]23)cc1 = > 2 µg/mL
